System: KRAS G12V dependent lung adenocarcinoma cell line, NCI-H441
test-summary: Cellular pERK (Thr202/Tyr204) FRET/HTRF assay
Assay type: cell-based
protocol-conditions: Homo sapiens, NCI-H441, cellular pERK (Thr202/Tyr204) HTRF, NCI-H441 cells
pIC50: −log10 of the molar value.
Can you tell me pIC50 for the items I'm about to list?

[Q] For the molecule [2H]C([2H])([2H])Oc1c(F)cc(F)c2cc(N)cc(-c3ncc4c(N5CCOC[C@H]6[C@H](F)[C@H]65)nc(OC[C@@]56CCCN5C/C(=C\F)C6)nc4c3F)c12 , what pIC50 is on record?
[A] > 7.30

[Q] For the molecule [2H]C1([2H])CC[C@@]2(C([2H])([2H])Oc3nc(N4CCOC[C@H]5[C@H](F)[C@H]54)c4cnc(-c5cc(N)cc6ccc(F)c(C#C)c56)c(F)c4n3)C[C@@]3(C[C@H]3F)CN12 (single isomer, unassigned) , what pIC50 is on record?
[A] > 7.30

[Q] For the molecule [2H]C([2H])(Oc1nc(N2CCOC[C@H]3[C@H](F)[C@H]32)c2cnc(-c3cc(N)cc4ccc(Cl)c(C#C)c34)c(F)c2n1)[C@@]12CCCN1C[C@H](F)C2 , what pIC50 is on record?
[A] > 7.30

[Q] For the molecule [2H]C([2H])(Oc1nc(N2CCOC[C@@H]3[C@@H](Cl)[C@@H]32)c2cnc(-c3cc(N)cc4ccc(F)c(C#C)c34)c(F)c2n1)[C@@]12CCCN1C[C@H](F)C2 , what pIC50 is on record?
[A] > 7.30

[Q] For the molecule [2H]C([2H])(Oc1nc(N2CC[C@H](C#N)C[C@@H]3[C@@H](F)[C@@H]32)c2cnc(-c3cc(N)cc4ccc(F)c(C#C)c34)c(F)c2n1)[C@@]12CCCN1C[C@H](F)C2 , what pIC50 is on record?
[A] 6.30 to 7.30

---

System: KRAS G12V dependent lung adenocarcinoma cell line, NCI-H441
test-summary: Cellular pERK (Thr202/Tyr204) FRET/HTRF assay
Format: cell-based
protocol-conditions: Homo sapiens, NCI-H441, cellular pERK (Thr202/Tyr204) HTRF, NCI-H441 cells
pIC50: −log10 of the molar value.
endpoint-name: pIC50

[Q] For the compound [2H]C([2H])(Oc1nc(N2CCOC[C@@H]3[C@@H](Cl)[C@@H]32)c2cnc(-c3cc(N)cc4ccc(Cl)c(C#C)c34)c(F)c2n1)[C@@]12CCCN1[C@H](C)[C@H](F)C2 , what pIC50 is on record?
[A] 5.00 to 6.30

[Q] For the compound [2H]C([2H])(Oc1nc(N2CCOC[C@H]3[C@H](F)[C@H]32)c2cnc(-c3cc(N)cc4ccc(C)c(C#C)c34)c(F)c2n1)[C@@]12CCCN1C[C@H](F)C2 , what pIC50 is on record?
[A] > 7.30

[Q] For the compound [2H]C([2H])(Oc1nc(N2CCOC[C@H]3[C@H](F)[C@H]32)c2cnc(-c3nc(N)cc(C)c3C(F)(F)F)c(F)c2n1)[C@@]12CCCN1C[C@H](F)C2 , what pIC50 is on record?
[A] 6.30 to 7.30

[Q] For the compound C#Cc1c(F)ccc2cc(N)cc(-c3ncc4c(N5CCOC[C@H]6[C@H](F)[C@H]65)nc(OC[C@]56C/C(=C/F)CN5CCC65CC5)nc4c3C)c12 , what pIC50 is on record?
[A] > 7.30

[Q] For the compound [2H]C([2H])(Oc1nc(N2CCOC[C@H]3[C@H](F)[C@H]32)c2cc(C(F)(F)F)c(-c3cc(N)cc4ccc(F)c(C#C)c34)c(F)c2n1)[C@@]12CCCN1C[C@H](F)C2 , what pIC50 is on record?
[A] 5.00 to 6.30

---

Test system: KRAS G12V dependent lung adenocarcinoma cell line, NCI-H441
test-summary: Cellular pERK (Thr202/Tyr204) FRET/HTRF assay
Type: cell-based
protocol-conditions: Homo sapiens, NCI-H441, cellular pERK (Thr202/Tyr204) HTRF, NCI-H441 cells
pIC50: −log10 of the molar value.
Can you tell me pIC50 for the items I'm about to list?

[Q] Value wanted: pIC50 (KRAS G12V dependent lung adenocarcinoma cell line, NCI-H441) of entry [2H]C([2H])(Oc1nc(N2CCOC[C@H]3[C@H](F)[C@H]32)c2cnc(-c3cccc4cccc(C#C)c34)c(F)c2n1)[C@@]12CCCN1C[C@H](F)C2
[A] > 7.30

[Q] Value wanted: pIC50 (KRAS G12V dependent lung adenocarcinoma cell line, NCI-H441) of entry [2H]C([2H])(Oc1nc(N2CCOC[C@@H]3[C@@H](F)[C@@H]32)c2cc(Cl)c(-c3cc(N)cc(C4CC4)c3C(F)(F)F)c(F)c2n1)[C@@]12CCCN1C[C@H](F)C2
[A] 5.00 to 6.30

[Q] Value wanted: pIC50 (KRAS G12V dependent lung adenocarcinoma cell line, NCI-H441) of entry [2H]C([2H])(Oc1nc(N2CCOC[C@@H]3[C@H]2[C@@]3([2H])F)c2cnc(-c3cccc4cc(F)c(F)c(C#C)c34)c(F)c2n1)[C@@]12CCCN1C[C@H](F)C2
[A] > 7.30

[Q] Value wanted: pIC50 (KRAS G12V dependent lung adenocarcinoma cell line, NCI-H441) of entry C#Cc1c(F)ccc2cccc(-c3ncc4c(N5CCOC[C@H]6[C@H](F)[C@H]65)nc(OC[C@]56C/C(=C/F)CN5CCC65CC5)nc4c3F)c12
[A] > 7.30

[Q] Value wanted: pIC50 (KRAS G12V dependent lung adenocarcinoma cell line, NCI-H441) of entry [2H]C([2H])(Oc1nc(N2CCOC[C@H]3[C@H](F)[C@H]32)c2cnc(-c3cc(N)cc4ccc(F)c(C#C)c34)c(F)c2n1)[C@@]12CCCN1C[C@@H](CC#N)C2 (single isomer, unassigned)
[A] > 7.30

[Q] Value wanted: pIC50 (KRAS G12V dependent lung adenocarcinoma cell line, NCI-H441) of entry C#Cc1c(F)ccc2cc(N)cc(-c3ncc4c(N5CCOC[C@H]6[C@H](F)[C@H]65)nc(OC[C@]56C[C@@]7(C[C@@H]7F)CN5CCC65CC5)nc4c3F)c12 (single isomer, unassigned)
[A] > 7.30

[Q] Value wanted: pIC50 (KRAS G12V dependent lung adenocarcinoma cell line, NCI-H441) of entry [2H]C([2H])(Oc1nc(N2CCCC[C@H]3[C@H](F)[C@H]32)c2cnc(-c3cccc4c(F)cc(F)c(C#C)c34)c(F)c2n1)[C@@]12CCCN1C[C@H](F)C2
[A] 6.30 to 7.30

[Q] Value wanted: pIC50 (KRAS G12V dependent lung adenocarcinoma cell line, NCI-H441) of entry [2H]C([2H])(Oc1nc(N2CCOC[C@@H]3[C@@H](F)[C@@H]32)c2cnc(-c3cc(N)cc4ccc(F)c(C#C)c34)c(F)c2n1)[C@@]12CCCN1C[C@H](F)C2
[A] 5.00 to 6.30

[Q] Value wanted: pIC50 (KRAS G12V dependent lung adenocarcinoma cell line, NCI-H441) of entry [2H]C([2H])(F)Oc1c(F)ccc2cccc(-c3ncc4c(N5CCOC[C@H]6[C@H](F)[C@H]65)nc(OC[C@@]56CCCN5C/C(=C\F)C6)nc4c3F)c12
[A] > 7.30

[Q] Value wanted: pIC50 (KRAS G12V dependent lung adenocarcinoma cell line, NCI-H441) of entry [2H]C([2H])([2H])Oc1c(F)c(F)c(F)c2cc(N)cc(-c3ncc4c(N5CCOC[C@H]6[C@H](F)[C@H]65)nc(OC[C@@]56CCCN5C/C(=C\F)C6)nc4c3F)c12
[A] > 7.30

---

Tested on: KRAS G12V dependent lung adenocarcinoma cell line, NCI-H441
test-summary: Cellular pERK (Thr202/Tyr204) FRET/HTRF assay
Assay type: cell-based
protocol-conditions: Homo sapiens, NCI-H441, cellular pERK (Thr202/Tyr204) HTRF, NCI-H441 cells
pIC50: −log10 of the molar value.
Can you tell me pIC50 for the items I'm about to list?

[Q] For the compound [2H]C([2H])(Oc1nc(N2CCOC[C@H]3[C@H](F)[C@H]32)c2cc(Cl)c(-c3ccc(F)c4sc(N)c(C#N)c34)c(F)c2n1)[C@@]12CCCN1C[C@H](F)C2 (atropisomer, axis not shown; (aS)) , what pIC50 is on record?
[A] 5.00 to 6.30

[Q] For the compound [2H]c1cc(F)c(C#C)c2c(-c3ncc4c(N5CCOC[C@H]6[C@H](F)[C@H]65)nc(OC([2H])([2H])[C@@]56CCCN5C[C@H](F)C6)nc4c3F)cc(N)cc12 , what pIC50 is on record?
[A] > 7.30

[Q] For the compound [2H]C([2H])(Oc1nc(N2CCOC[C@@H]3[C@@H](F)[C@@H]32)c2c(OC)nc(-c3cc(N)cc4ccc(F)c(C#C)c34)c(F)c2n1)[C@@]12CCCN1C[C@H](F)C2 , what pIC50 is on record?
[A] 5.00 to 6.30

[Q] For the compound [2H]C([2H])(F)Oc1c(F)c(F)cc2cccc(-c3ncc4c(N5CCCC[C@H]6[C@H](F)[C@H]65)nc(OC([2H])([2H])[C@@]56CCCN5C[C@H](F)C6)nc4c3F)c12 , what pIC50 is on record?
[A] > 7.30

[Q] For the compound [2H]C([2H])(Oc1nc(N2CCOC[C@H]3[C@H](Cl)[C@H]32)c2cnc(-c3cc(N)cc4ccc(F)c(C#C)c34)c(F)c2n1)[C@@]12CCCN1C[C@H](F)C2 , what pIC50 is on record?
[A] > 7.30

[Q] For the compound [2H]C([2H])(F)Oc1c(F)ccc2cc(N)cc(-c3ncc4c(N5CCOC[C@H]6[C@H](F)[C@H]65)nc(OC[C@]56CC(=C)CN5CCC65CC5)nc4c3F)c12 , what pIC50 is on record?
[A] > 7.30

[Q] For the compound C#Cc1c(F)ccc2cccc(-c3ncc4c(N5CCOC[C@H]6[C@H](F)[C@H]65)nc(OC[C@@]56CCCN5C/C(=C\F)C6)nc4c3F)c12 , what pIC50 is on record?
[A] > 7.30

[Q] For the compound [2H]C([2H])(Oc1nc(N2CCC=C[C@H]3[C@H](F)[C@H]32)c2cnc(-c3cc(N)cc4cc(F)c(F)c(C#C)c34)c(F)c2n1)[C@@]12CCCN1C[C@H](F)C2 , what pIC50 is on record?
[A] > 7.30

[Q] For the compound C#Cc1c(F)ccc2cc(N)cc(-c3ncc4c(N5CCOC[C@H]6[C@H](F)[C@H]65)nc(OC[C@]56CC7(CC7)CN5CCC65CC5)nc4c3F)c12 , what pIC50 is on record?
[A] > 7.30

[Q] For the compound [2H]C([2H])([2H])Oc1c(F)cc(F)c2cc(N)cc(-c3ncc4c(N5CCCC[C@H]6[C@H](F)[C@H]65)nc(OC([2H])([2H])[C@@]56CCCN5C[C@H](F)C6)nc4c3F)c12 , what pIC50 is on record?
[A] > 7.30
